Source of measurements: patent US10774084B2

- System: HaCaT
- testDescription: In vitro UVA/UVB photoprotection test on HaCaT
- Format: cell-based, human
- experimentalParameters: Table 18: titled UVA-induced damage, 31.3 μmol/l
Use MET when the recorded Protection (%) is no lower than 60%; use NOT MET when it is lower.

Here's what some known entries look like.
>  <compound>
Clc1nc(NCC2CCCO2)c2ncn(C3CCCO3)c2n1 (centres unmarked)

>  <labelValue>
MET

$$$$
>  <compound>
c1csc(CNc2ncnc3c2ncn3C2CCCO2)c1 (centres unmarked)

>  <labelValue>
NOT MET

$$$$
>  <compound>
O=C(/C=C/c1ccc(O)c(O)c1)O[C@H](Cc1ccc(O)c(O)c1)C(=O)O [RA, rosmarinic acid, reference compound]

>  <labelValue>
NOT MET

$$$$
>  <compound>
Clc1nc(NCc2ccco2)c2ncn(C3CCCO3)c2n1 (centres unmarked)

>  <labelValue>
NOT MET

$$$$

Now for a further compound.
Exam item: Hi team, for OCc1ccc(CNc2ncnc3c2ncn3C2CCCO2)o1 (centres unmarked) , is the recorded Protection (%) at or above 60%?
Marked response: NOT MET

---

Each record here notes measured NHDF viability.
- System: Normal human dermal fibroblasts (NHDF)
- testDescription: In vitro phototoxicity test (neutral red) on NHDF
- Format: cell-based
- experimentalParameters: +UVA 5.0 J/cm^2; 3.9 μmol/l
- Protocol: […] [formula] • AS . . . absorbance of sample (cells pre-incubated with test compound in serum free medium and irradiated) • AC . . . absorbance of control (cells pre-incubated with DMSO in serum free medium and irradiated) • AB . . . absorbance of background (extraction solution)
Could you give me the number in % control? Just the number is fine.

Exam item: Return reported NHDF viability; argument: OCc1ccc(CNc2ncnc3c2ncn3C2CCCO2)o1 (centres unmarked) [Compound 3]
Marked response: 101.04

Exam item: Return reported NHDF viability; argument: Clc1nc(NCc2ccco2)c2ncn(C3CCCO3)c2n1 (centres unmarked) [Compound 15]
Marked response: 100.1

Exam item: Return reported NHDF viability; argument: c1nc(NCC2CCCO2)c2ncn(C3CCCO3)c2n1 (centres unmarked) [Compound 1]
Marked response: 105.1

Exam item: Return reported NHDF viability; argument: Clc1nc(NCC2CCCO2)c2ncn(C3CCCO3)c2n1 (centres unmarked) [Compound 20]
Marked response: 100.1

Exam item: Return reported NHDF viability; argument: c1csc(CNc2ncnc3c2ncn3C2CCCO2)c1 (centres unmarked) [Compound 9]
Marked response: 97.8

---

- Test system: HaCaT
- testDescription: In vitro phototoxicity test (neutral red) on HaCaT
- Assay type: cell-based, human
- experimentalParameters: −UVA; 31.3 μmol/l
propertyMeasured: HaCaT viability
Please state the number and follow it with the unit.

Observe how each entry below is paired with its result.
>  <compound>
c1csc(CNc2ncnc3c2ncn3C2CCCO2)c1 (stereo not shown)

>  <HaCaT viability>
101.8 % control

$$$$
>  <compound>
OCc1ccc(CNc2ncnc3c2ncn3C2CCCO2)o1 (stereo not shown)

>  <HaCaT viability>
107.8 % control

$$$$
>  <compound>
Clc1nc(NCc2ccco2)c2ncn(C3CCCO3)c2n1 (stereo not shown)

>  <HaCaT viability>
108.6 % control

$$$$

Exam item: Return reported HaCaT viability; argument: Clc1nc(NCC2CCCO2)c2ncn(C3CCCO3)c2n1 (stereo not shown)
Marked response: 108.6 % control

---

Each record here notes measured NHDF viability.
- Tested on: Normal human dermal fibroblasts (NHDF)
- testDescription: In vitro phototoxicity test (neutral red) on NHDF
- Type: cell-based
- experimentalParameters: +UVA 5.0 J/cm^2; 125 μmol/l
Could you give me the number in % control? Just the number is fine.

Observe how each entry below is paired with its result.
>  <compound>
Clc1nc(NCC2CCCO2)c2ncn(C3CCCO3)c2n1 (centres unmarked) [Compound 20]

>  <NHDF viability, % control>
104.8

$$$$
>  <compound>
c1csc(CNc2ncnc3c2ncn3C2CCCO2)c1 (centres unmarked) [Compound 9]

>  <NHDF viability, % control>
106.3

$$$$
>  <compound>
Clc1nc(NCc2ccco2)c2ncn(C3CCCO3)c2n1 (centres unmarked) [Compound 15]

>  <NHDF viability, % control>
97.3

$$$$

Exam item: Return reported NHDF viability; argument: OCc1ccc(CNc2ncnc3c2ncn3C2CCCO2)o1 (centres unmarked) [Compound 3]
Marked response: 111.8

Exam item: Return reported NHDF viability; argument: c1nc(NCC2CCCO2)c2ncn(C3CCCO3)c2n1 (centres unmarked) [Compound 1]
Marked response: 107.5

---

- Test system: HaCaT
- testDescription: In vitro phototoxicity test (neutral red) on HaCaT
- Assay type: cell-based, human
- experimentalParameters: +UVA 5.0 J/cm2; 15.6 μmol/l
Each record here notes measured HaCaT viability.
Could you give me the number in % control? Just the number is fine.

Observe how each entry below is paired with its result.
>  <molecule>
Clc1nc(NCc2ccco2)c2ncn(C3CCCO3)c2n1 (stereo not shown)

>  <propertyMeasured>
HaCaT viability

>  <quantitativeReadout>
119.9

$$$$
>  <molecule>
OCc1ccc(CNc2ncnc3c2ncn3C2CCCO2)o1 (stereo not shown)

>  <propertyMeasured>
HaCaT viability

>  <quantitativeReadout>
107.93

$$$$
>  <molecule>
c1csc(CNc2ncnc3c2ncn3C2CCCO2)c1 (stereo not shown)

>  <propertyMeasured>
HaCaT viability

>  <quantitativeReadout>
120.5

$$$$

Next item in the queue.
Exam item: Return reported HaCaT viability; argument: Clc1nc(NCC2CCCO2)c2ncn(C3CCCO3)c2n1 (stereo not shown)
Marked response: 110.1

---

Each record here notes measured NHDF viability.
- Test system: Normal human dermal fibroblasts (NHDF)
- testDescription: In vitro phototoxicity test (neutral red) on NHDF
- Assay type: cell-based
- experimentalParameters: +UVA 5.0 J/cm^2; 7.8 μmol/l
Could you give me the number in % control? Just the number is fine.

Observe how each entry below is paired with its result.
>  <compound>
c1csc(CNc2ncnc3c2ncn3C2CCCO2)c1 (centres unmarked)

>  <NHDF viability, % control>
102.3

$$$$
>  <compound>
OCc1ccc(CNc2ncnc3c2ncn3C2CCCO2)o1 (centres unmarked)

>  <NHDF viability, % control>
106.46

$$$$
>  <compound>
Clc1nc(NCC2CCCO2)c2ncn(C3CCCO3)c2n1 (centres unmarked)

>  <NHDF viability, % control>
102.9

$$$$
>  <compound>
Clc1nc(NCc2ccco2)c2ncn(C3CCCO3)c2n1 (centres unmarked)

>  <NHDF viability, % control>
101.5

$$$$

Next item in the queue.
Exam item: Return reported NHDF viability; argument: c1nc(NCC2CCCO2)c2ncn(C3CCCO3)c2n1 (centres unmarked)
Marked response: 110.6

---

- Test system: HaCaT
- testDescription: In vitro phototoxicity test (neutral red) on HaCaT
- Assay type: cell-based, human
- experimentalParameters: +UVA 5.0 J/cm2; 3.9 μmol/l
Each record here notes measured HaCaT viability.
Could you give me the number in % control? Just the number is fine.

>  <compound>
Clc1nc(NCc2ccco2)c2ncn(C3CCCO3)c2n1 (stereo not shown) [Compound 15]

>  <propertyMeasured>
HaCaT viability

>  <unit>
% control

>  <quantitativeReadout>
116.4

$$$$

Exam item: Return reported HaCaT viability; argument: OCc1ccc(CNc2ncnc3c2ncn3C2CCCO2)o1 (stereo not shown) [Compound 3]
Marked response: 103.88

Exam item: Return reported HaCaT viability; argument: c1csc(CNc2ncnc3c2ncn3C2CCCO2)c1 (stereo not shown) [Compound 9]
Marked response: 122.7

Exam item: Return reported HaCaT viability; argument: Clc1nc(NCC2CCCO2)c2ncn(C3CCCO3)c2n1 (stereo not shown) [Compound 20]
Marked response: 104.6

---

- Tested on: HaCaT
- testDescription: In vitro UVA/UVB photoprotection test on HaCaT
- Assay type: cell-based, human
- experimentalParameters: Table 18: titled UVA-induced damage, 7.8 μmol/l
propertyMeasured: Protection (%)
Could you give me the number in %? Just the number is fine.

>  <molecule>
OCc1ccc(CNc2ncnc3c2ncn3C2CCCO2)o1 (centres unmarked)

>  <propertyMeasured>
Protection (%)

>  <quantitativeReadout>
46.5

$$$$
>  <molecule>
c1csc(CNc2ncnc3c2ncn3C2CCCO2)c1 (centres unmarked)

>  <propertyMeasured>
Protection (%)

>  <quantitativeReadout>
56

$$$$
>  <molecule>
Clc1nc(NCC2CCCO2)c2ncn(C3CCCO3)c2n1 (centres unmarked)

>  <propertyMeasured>
Protection (%)

>  <quantitativeReadout>
66.2

$$$$
>  <molecule>
O=C(/C=C/c1ccc(O)c(O)c1)O[C@H](Cc1ccc(O)c(O)c1)C(=O)O [RA, rosmarinic acid, reference compound]

>  <propertyMeasured>
Protection (%)

>  <quantitativeReadout>
48.5

$$$$

Exam item: Return reported Protection (%); argument: Clc1nc(NCc2ccco2)c2ncn(C3CCCO3)c2n1 (centres unmarked)
Marked response: 35.3
